- protocol-details: Ratio against rat A1 receptor and Human A3 receptor
Please mark T if the recorded Selectivity ratio is equal to or greater than 1, and F if it falls below.

For orientation, consider the following solved cases.
> print(dat)
                               query.smiles  cat
1  O=C(Nc1nc2ccc(Cl)cc2c2nc(-c3ccco3)nn12)C(c1ccccc1)c1ccccc1    T
2  CC(C)(C)OC(=O)NCCCC(=O)Nc1nc2ccc(Cl)cc2c2nc(-c3ccco3)nn12    T
3  O=C(Cc1cccc(Cl)c1)Nc1nc2ccc(Cl)cc2c2nc(-c3ccco3)nn12    T
4  CC(C)(C)OC(=O)NCCCCCC(=O)Nc1nc2ccc(Cl)cc2c2nc(-c3ccco3)nn12    T

QUERY: Evaluate `O=C(Cc1cccc(I)c1)Nc1nc2ccc(Cl)cc2c2nc(-c3ccco3)nn12` : Selectivity ratio at minimum 1?
RESULT: F

QUERY: Evaluate `CC(C)(C)OC(=O)NCCCCC(=O)Nc1nc2ccc(Cl)cc2c2nc(-c3ccco3)nn12` : Selectivity ratio at minimum 1?
RESULT: T

QUERY: Evaluate `Clc1ccc2nc(NCc3ccccc3)n3nc(-c4ccco4)nc3c2c1` : Selectivity ratio at minimum 1?
RESULT: T

QUERY: Evaluate `COC(=O)CCC(=O)Nc1nc2ccc(Cl)cc2c2nc(-c3ccco3)nn12` : Selectivity ratio at minimum 1?
RESULT: T

QUERY: Evaluate `O=C(Cc1ccccc1I)Nc1nc2ccc(Cl)cc2c2nc(-c3ccco3)nn12` : Selectivity ratio at minimum 1?
RESULT: F

QUERY: Evaluate `NCCCCC(=O)Nc1nc2ccc(Cl)cc2c2nc(-c3ccco3)nn12` : Selectivity ratio at minimum 1?
RESULT: F

QUERY: Evaluate `O=C(Cc1ccc(I)cc1)Nc1nc2ccc(Cl)cc2c2nc(-c3ccco3)nn12` : Selectivity ratio at minimum 1?
RESULT: F

QUERY: Evaluate `C[C@H](N)C(=O)Nc1nc2ccc(Cl)cc2c2nc(-c3ccco3)nn12` : Selectivity ratio at minimum 1?
RESULT: F

QUERY: Evaluate `CC(C(=O)Nc1nc2ccc(Cl)cc2c2nc(-c3ccco3)nn12)(c1ccccc1)c1ccccc1` : Selectivity ratio at minimum 1?
RESULT: T

QUERY: Evaluate `NCCC(=O)Nc1nc2ccc(Cl)cc2c2nc(-c3ccco3)nn12` : Selectivity ratio at minimum 1?
RESULT: F

QUERY: Evaluate `O=C(CCCCC(=O)OCc1ccccc1)Nc1nc2ccc(Cl)cc2c2nc(-c3ccco3)nn12` : Selectivity ratio at minimum 1?
RESULT: T

QUERY: Evaluate `O=C(/C=C/c1ccccc1)Nc1nc2ccc(Cl)cc2c2nc(-c3ccco3)nn12` : Selectivity ratio at minimum 1?
RESULT: T

QUERY: Evaluate `NCCCC(=O)Nc1nc2ccc(Cl)cc2c2nc(-c3ccco3)nn12` : Selectivity ratio at minimum 1?
RESULT: F

QUERY: Evaluate `CC(C)(C)OC(=O)NCCC(=O)Nc1nc2ccc(Cl)cc2c2nc(-c3ccco3)nn12` : Selectivity ratio at minimum 1?
RESULT: T

QUERY: Evaluate `COC(=O)CCCCCCC(=O)Nc1nc2ccc(Cl)cc2c2nc(-c3ccco3)nn12` : Selectivity ratio at minimum 1?
RESULT: F

QUERY: Evaluate `CC(C)(C)OC(=O)NCCCCCCC(=O)Nc1nc2ccc(Cl)cc2c2nc(-c3ccco3)nn12` : Selectivity ratio at minimum 1?
RESULT: F
